Entry source: the supplement of paper PMC10567573

B1: PTPRD (parent)
chain: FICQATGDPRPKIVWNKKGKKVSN

variants of: B1; experiment: protein stability index of a GFP-peptide fusion (GPS, HEK-293T) (PSI 1-6); higher = more stable; conditions: c terminus: a fixed tail appended;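 also: lentivirally expressed fusions sorted by FACS into six bins by GFP to DsRed ratio, PSI derived from sequencing read proportions per bin multiplied by bin number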
Listed variants paired with reported protein stability index
MEASURE NAME: protein stability index

RESIDUE CHANGE | MEASUREMENT
F1D | 3.65
P9T | 1.88
K12I | 1.89
C3W | 1.97
A5K | 3.03
F1H | 3.71
P11V | 1.18
G19K | 1.87
I2Y | 3.01
C3L | 1.86
S23T | 2.59
A5T | 2.08
K12T | 2.26
T6F | 1.68
K20E | 1.78
I13L | 1.45
S23A | 2.49
W15P | 2.56
